Value source: patent US20250353873A1

Test system: human APOE RNA
Assay: Dose-dependent inhibition of human APOE RNA in HepG2 cells, electroporation, 50,000 cells per well, RT-PCR normalized to GAPDH (Example 4, Tables 8-10)
Assay type: cell-based
Conditions: HepG2, electroporation, 24-hour treatment
Procedure: Modified oligonucleotides selected from the examples above were tested at various doses in HepG2 cells. The modified oligonucleotides were tested in a series of experiments that had the same culture conditions. Each experiment is identified in separate tables below. HepG2 cells plated at a density of 50,000 cells per well were treated by electroporation with various concentrations of modified oligonucleotide as specified in the tables below. […]
Strand notation (5' to 3'): a small letter for the sugar, then the base; units joined by * are phosphorothioate-linked, units joined directly phosphodiester-linked; [ ] holds rarer units or linkages, { } end groups; capitals alone tell only the bases. [ms] = mesyl phosphoramidate linkage; k = constrained ethyl (cEt); [5mC] = 5-methylcytosine; d = 2'-deoxy (DNA)
Hi! Just check whether IC50 is below 2 µM. Below gives Criterion met, equal or above gives Criterion not met.

>  <substance>
1746810 (k[5mC]*dT[ms]kT*dG[ms]dG[ms]kT*dG[ms]dA[ms]dA[ms]dT*d[5mC]*dT*dT*dT*dA[ms]dT*dT[ms]kA*kA*kA; antisense) [Compound 1746810]

>  <label_class>
Criterion met

$$$$
>  <substance>
1746786 (k[5mC]*kT*dT[ms]dG[ms]kG*dT[ms]dG[ms]dA[ms]dA[ms]dT*d[5mC]*dT*dT*dT*dA[ms]dT*kT*kA*dA[ms]kA; antisense) [Compound 1746786]

>  <label_class>
Criterion met

$$$$
>  <substance>
1746794 (k[5mC]*kT*kT*dG[ms]dG[ms]dT[ms]dG[ms]dA[ms]dA[ms]dT*d[5mC]*dT*dT*dT*dA[ms]dT*kT*dA[ms]kA*kA; antisense) [Compound 1746794]

>  <label_class>
Criterion met

$$$$

API: query returns whether the substance falls strictly under 2 µM in IC50. Query: 1747050 (k[5mC]*kT*kT*dG[ms]dG[ms]kT*dG[ms]dA[ms]dA[ms]dT*d[5mC]*dT*dT*dT*dA[ms]dT*kT*dA[ms]dA[ms]kA; antisense) [Compound 1747050] Criterion met

Query 1747051 (k[5mC]*kT*dT[ms]kG*dG[ms]kT*dG[ms]dA[ms]dA[ms]dT*d[5mC]*dT*dT*dT*dA[ms]dT*kT*dA[ms]dA[ms]kA; antisense) [Compound 1747051] next Criterion not met

###

Tested on: human APOE RNA
Test: Dose-dependent inhibition of human APOE RNA in HepG2 cells, electroporation, 24 hours (Example 6)
Format: cell-based
Strand notation (5' to 3'): a small letter for the sugar, then the base; units joined by * are phosphorothioate-linked, units joined directly phosphodiester-linked; [ ] holds rarer units or linkages, { } end groups; capitals alone tell only the bases. [ms] = mesyl phosphoramidate linkage; e = 2'-O-(2-methoxyethyl) (MOE); k = constrained ethyl (cEt); [5mC] = 5-methylcytosine; d = 2'-deoxy (DNA)
Entries and their measured IC50 follow.
Field format: number, assumed nM, no unit text.

Kindly state the measured IC50 obtained for 1736535 (e[5mC]*eT*eT*eG*eGkT*dG[ms]dA[ms]dA[ms]dT*d[5mC]*dT*dT*dT*dA[ms]dT*eT*eA*eA*eA; antisense) [Compound 1736535] with human APOE RNA. 1660

Query 1736517 (e[5mC]*eTeTeG*kG*kT*dG[ms]dA[ms]dA[ms]dT*d[5mC]*dT*dT*dT*dA[ms]dT*eT*eA*eA*eA; antisense) [Compound 1736517] next 470

Query 1736526: 6-10-4 MOE gapmer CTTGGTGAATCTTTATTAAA, linkages ssoooszzsssssssssss (e[5mC]*eT*eTeGeGeT*dG[ms]dA[ms]dA*dT*d[5mC]*dT*dT*dT*dA*dT*eT*eA*eA*eA) [compound 1736526] next 1150

Query 1736527: 6-10-4 MOE gapmer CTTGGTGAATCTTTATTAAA, linkages sssooozzsssssssssss (e[5mC]*eT*eT*eGeGeTdG[ms]dA[ms]dA*dT*d[5mC]*dT*dT*dT*dA*dT*eT*eA*eA*eA) [compound 1736527] next 1580

Query 1736532 (e[5mC]*eT*eT*eG*kG*kTdG[ms]dA[ms]dA[ms]dT*d[5mC]*dT*dT*dT*dA[ms]dT*eT*eA*eA*eA; antisense) [Compound 1736532] next 280
